Measured target: human receptor tyrosine kinase like orphan receptor 1 (ROR1) (human, UniProt Q01973 30-937)
Sequence (Q01973 30-937): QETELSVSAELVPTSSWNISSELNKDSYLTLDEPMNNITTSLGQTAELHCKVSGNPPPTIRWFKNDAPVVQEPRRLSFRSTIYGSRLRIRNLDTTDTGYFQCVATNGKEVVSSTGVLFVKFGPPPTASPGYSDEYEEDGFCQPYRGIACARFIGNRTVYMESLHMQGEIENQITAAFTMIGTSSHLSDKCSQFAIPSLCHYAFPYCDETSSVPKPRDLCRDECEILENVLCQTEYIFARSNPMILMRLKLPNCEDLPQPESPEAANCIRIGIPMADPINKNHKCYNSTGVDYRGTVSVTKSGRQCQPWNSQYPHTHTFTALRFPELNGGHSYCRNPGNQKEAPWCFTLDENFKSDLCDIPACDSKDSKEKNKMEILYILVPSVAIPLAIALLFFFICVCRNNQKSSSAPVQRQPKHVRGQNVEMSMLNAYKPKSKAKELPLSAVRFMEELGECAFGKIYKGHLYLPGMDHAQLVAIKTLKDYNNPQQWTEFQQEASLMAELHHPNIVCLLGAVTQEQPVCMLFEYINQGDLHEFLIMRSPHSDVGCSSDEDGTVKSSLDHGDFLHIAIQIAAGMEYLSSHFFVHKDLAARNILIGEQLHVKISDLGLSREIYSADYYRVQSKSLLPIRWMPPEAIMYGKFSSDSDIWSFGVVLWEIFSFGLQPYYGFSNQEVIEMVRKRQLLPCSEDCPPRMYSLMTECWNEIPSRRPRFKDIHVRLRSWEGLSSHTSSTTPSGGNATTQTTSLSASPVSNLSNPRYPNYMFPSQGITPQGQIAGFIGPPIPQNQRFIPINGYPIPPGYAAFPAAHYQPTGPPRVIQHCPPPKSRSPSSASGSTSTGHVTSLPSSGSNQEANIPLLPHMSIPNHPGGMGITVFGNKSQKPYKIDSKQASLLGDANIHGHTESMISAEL
Method description: cell-based or functional assay
Provide the reported IC50, cell viability (CellTiter-Glo, 72 h), TMD-8 cells of each item.

Previously resolved entries follow.
binder="ADC-F (antibody, human IgG1, kappa, V domains shown, SC-VC-PAB-DM1 bonded via lysine residues of the antibody (chain and positions not stated)) VH: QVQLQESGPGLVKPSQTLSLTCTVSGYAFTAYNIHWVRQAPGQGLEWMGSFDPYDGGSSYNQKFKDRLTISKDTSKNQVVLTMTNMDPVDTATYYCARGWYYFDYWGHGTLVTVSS VL: DIVMTQTPLSLPVTPGEPASISCRASKSISKYLAWYQQKPGQAPRLLIYSGSTLQSGIPPRFSGSGYGTDFTLTINNIESEDAAYYFCQQHDESPYTFGEGTKVEIKR" result_value="> 1000 nM"
binder="ADC-C (antibody, human IgG1, kappa, V domains shown, MAL-VC-PAB-DM1 bonded via cysteine residues of the antibody (chain and positions not stated)) VH: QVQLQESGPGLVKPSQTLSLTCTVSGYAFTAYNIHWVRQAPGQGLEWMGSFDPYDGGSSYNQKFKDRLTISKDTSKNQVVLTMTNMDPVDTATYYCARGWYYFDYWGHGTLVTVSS VL: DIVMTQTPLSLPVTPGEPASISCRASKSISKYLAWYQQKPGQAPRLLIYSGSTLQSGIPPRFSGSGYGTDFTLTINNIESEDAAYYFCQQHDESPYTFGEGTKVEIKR" result_value="> 1000 nM"

Field: next binder
# input Could you tell me which IC50, cell viability (CellTiter-Glo, 72 h), TMD-8 cells is on file for ADC-E (antibody, human IgG1, kappa, V domains shown, SC-VC-PAB-MMAE bonded via lysine residues of the antibody (chain and positions not stated)) VH: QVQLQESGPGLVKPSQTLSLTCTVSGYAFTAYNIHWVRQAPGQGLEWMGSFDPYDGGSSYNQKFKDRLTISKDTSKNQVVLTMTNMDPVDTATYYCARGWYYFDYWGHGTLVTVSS VL: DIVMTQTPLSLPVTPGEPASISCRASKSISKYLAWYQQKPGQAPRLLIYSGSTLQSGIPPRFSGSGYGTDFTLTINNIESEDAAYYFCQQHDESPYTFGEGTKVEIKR ?
# output 94.3 nM
